# TARGET: human dopamine transporter (hDAT) (Homo sapiens, UniProt Q01959)
PROPERTY: Kd (nM)
One number for each entry, in nM.

*Q* Any idea what its Kd is? The molecule is CN(C)CC(c1ccc2ccccc2c1)C(O)C1CCCCC1 (racemic) [PRC025]
*A* 54

Now for the molecule whose Kd we want.
*Q* Any idea what its Kd is? The molecule is CNCC(c1ccc2ccccc2c1)C(O)c1ccccc1 (racemic) [Compound A]
*A* 134

###

# TARGET: human serotonin transporter (hSERT) (Homo sapiens, UniProt P31645)
# Sequence (P31645 whole entry): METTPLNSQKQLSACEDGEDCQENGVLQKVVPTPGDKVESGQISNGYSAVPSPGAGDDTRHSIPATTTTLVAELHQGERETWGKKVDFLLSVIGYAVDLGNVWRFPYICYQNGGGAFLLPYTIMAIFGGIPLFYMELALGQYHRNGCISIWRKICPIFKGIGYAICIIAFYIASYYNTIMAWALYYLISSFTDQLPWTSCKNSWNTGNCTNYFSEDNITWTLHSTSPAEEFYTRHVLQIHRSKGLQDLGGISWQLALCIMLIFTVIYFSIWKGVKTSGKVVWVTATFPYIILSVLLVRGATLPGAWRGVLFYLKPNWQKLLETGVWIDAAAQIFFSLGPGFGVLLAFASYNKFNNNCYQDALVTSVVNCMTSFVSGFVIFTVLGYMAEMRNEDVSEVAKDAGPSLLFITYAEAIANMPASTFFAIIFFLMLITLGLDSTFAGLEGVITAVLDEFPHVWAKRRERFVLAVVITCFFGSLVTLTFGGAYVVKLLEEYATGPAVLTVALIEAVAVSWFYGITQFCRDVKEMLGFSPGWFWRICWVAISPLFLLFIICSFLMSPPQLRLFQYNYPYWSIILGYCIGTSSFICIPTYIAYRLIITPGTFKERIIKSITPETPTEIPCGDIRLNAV
PROPERTY: pKd
Numbers only, as −log10 of the molar value.

*Q* GET /values?readout=pKd&system=human serotonin transporter (hSERT) (Homo sapiens, UniProt P31645)&item= CN(C)CC(c1ccc2ccccc2c1)C(O)C1CCCCC1 (racemic)
*A* 8.39
